Reported Population Apoptotic (%) values are given for each entry in this list.
system: Fibroblast; experiment: Multiplex assay against human fibroblast; assay type: toxicity, cell-based; conditions: 24 h, 10 µM, compound concentration 10 uM, replicate 2
Number only, in %; omit the unit.

Previously resolved entries follow.
N#Cc1cnc(Nc2cc(NC[C@H]3CNCCO3)c(C(F)(F)F)cn2)cn1 = 28
O=C(O)c1ccc2cc(-c3ccc(O)c(C45CC6CC(CC(C6)C4)C5)c3)ccc2c1 = 0
CCOc1cc(N2CCC(O)CC2)ccc1Nc1ncc2c(n1)N(C1CCCC1)CCC(=O)N2C = 60

Look up and report Population Apoptotic (%), with Fibroblast as system, for `CCc1cc2c(cc1CC)CC(NC[C@H](O)c1ccc(O)c3[nH]c(=O)ccc13)C2`
89

Write down measured Population Apoptotic (%) (Fibroblast) for this molecule. `Cl.Cl.NC1(c2ccc(-c3nc4ccn5c(=O)[nH]nc5c4cc3-c3ccccc3)cc2)CCC1`
83

Supply Population Apoptotic (%) measured with Fibroblast for `CN(C)CCOc1ccc(-c2nc(-c3ccncc3)c(-c3ccc4c(c3)CC/C4=N\O)[nH]2)cc1` .
100
